Biological target: Bcl-xL-Beclin 1 complex (Homo sapiens, UniProt Q07817)
Construct: made in house
Sequence (Q07817 whole entry, one chain of several): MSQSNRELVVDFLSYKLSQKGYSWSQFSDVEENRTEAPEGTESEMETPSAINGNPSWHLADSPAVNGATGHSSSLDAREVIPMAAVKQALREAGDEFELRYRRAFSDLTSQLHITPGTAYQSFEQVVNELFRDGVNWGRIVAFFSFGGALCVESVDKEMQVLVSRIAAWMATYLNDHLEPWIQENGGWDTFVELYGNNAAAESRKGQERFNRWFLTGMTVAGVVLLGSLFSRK
Assay: FP-based high-throughput screening, primary screen
Format: binding
Details: first screen; 40 μM compound, 2.5 μM Bcl-xL, 400 nM 20-mer
Excerpt: Next, we optimized the FP competitive binding assay in a 384-well microplate format and carried out a small-scale HTS using a small library, which contains 6580 compounds from Prestwick, Microsource and our in-house CMLD library. Then, the FP assay was optimized and applied in screening the larger Chembridge library consisting of 43736 compounds. HTS cascades are shown in Supplementary Figure 1A–1B. […] Then the plates were read by Envision (Perkin Elmer, Waltham, MA). […]
Where a name gives a salt, the structure may show the parent alone.
parameter_measured: Primary Screen mP (mP)
Enter your answer as a number in mP; do not include the unit.

For reference, reported Primary Screen mP for CCCCC(CC)CCC(CC(C)C)OS(=O)(=O)O (stereo not shown) [Compound A06, SODIUM TETRADECYL SULFATE] stands at 121.5

Value of measured Primary Screen mP for the entry CCCCCc1c2c(cc(O)c1C(=O)O)OC(=O)c1c(cc(OC)cc1C(=O)CCCC)O2 [Compound A04, LOBARIC ACID] : 129.2

Reported Primary Screen mP ( CC[C@@]1(O)C(=O)OCc2c1cc1n(c2=O)Cc2cc3c(CN(C)C)c(O)ccc3nc2-1 [Compound A23, TOPOTECAN HYDROCHLORIDE] ) = 43.8

Reported Primary Screen mP of O=C(O)c1cc(O)c2c(c1)[C@H]([C@H]1c3cc(C(=O)O)cc(O)c3C(=O)c3c(O[C@@H]4O[C@H](CO)[C@@H](O)[C@H](O)[C@H]4O)cccc31)c1cccc(O[C@@H]3O[C@H](CO)[C@@H](O)[C@H](O)[C@H]3O)c1C2=O [Compound A34, SENNOSIDE A] : 119.9

Field Primary Screen mP (entry CN(C)c1ccc(C(=C2C=CC(=[N+](C)C)C=C2)c2ccc(N(C)C)cc2)cc1 [Compound A08, GENTIAN VIOLET] ) reads 123.0

The measured Primary Screen mP associated with O=C1C(Cl)=C(Cl)C(=O)C(Cl)=C1Cl [Compound A27, CHLORANIL] reads 140.9

The compound identified as CC[n+]1c(-c2ccccc2)c2cc(N)ccc2c2ccc(N)cc21 [Compound A12, HOMIDIUM BROMIDE] registered its Primary Screen mP at 113.8

----------
Reported inhibition at 160 µM is given for each of the following molecules.
target: Bcl-xL-Beclin 1 complex (Homo sapiens, UniProt Q07817); construct: made in house; experiment: Concentration response FP reconfirmation of HTS hits; format: binding; settings: 160 μM; hits of first screen; read-out: Dose-response (% Inhibition) 160 μM
Where a name gives a salt, the structure may show the parent alone.
State just the number; it will be interpreted in %.

Looking up COc1cccc2c1C(=O)c1c(O)c3c(c(O)c1C2=O)C[C@@](O)(C(=O)CO)C[C@@H]3O[C@H]1C[C@H](N)[C@H](O)[C@H](C)O1 [Compound A25, DOXORUBICIN HYDROCHLORIDE] , I see its inhibition at 160 µM listed as 53.2

Data point: CC1=NCCc2c1[nH]c1cc(O)ccc21 [Compound A28, HARMALOL HYDROCHLORIDE] ; inhibition at 160 µM = 86.2

inhibition at 160 µM recorded for this molecule, Nc1ccc2cc3ccc(N)cc3nc2c1 [Compound A13, PROFLAVINE HEMISULFATE] , is 102

Measured inhibition at 160 µM, CCCCC(CC)CCC(CC(C)C)OS(=O)(=O)O (centres unmarked) [Compound A06, SODIUM TETRADECYL SULFATE] : 24.4

Reported inhibition at 160 µM for "COC(=O)Nc1nc2ccc(Sc3ccccc3)cc2[nH]1" was 8.8

----------
target: Bcl-xL-Beclin 1 complex (Homo sapiens); construct: made in house; assay: FP-based high-throughput screening, primary screen; format: binding; settings: first screen; 40 μM compound, 2.5 μM Bcl-xL, 400 nM 20-mer
Structures can show the parent of a compound that is named as a salt.
parameter_measured: Primary Screen mP

Solved cases (2 shown):
| compound | Primary Screen mP |
| --- | --- |
| COc1cccc2c1C(=O)c1c(O)c3c(c(O)c1C2=O)C[C@@](O)(C(=O)CO)C[C@@H]3O[C@H]1C[C@H](N)[C@@H](O)[C@H](C)O1 [Compound A24, EPIRUBICIN HYDROCHLORIDE] | 136.0 mP |
| O=C1c2cccc(O)c2C(=O)c2c(O)cccc21 | 126.4 mP |

--- query ---
The measured Primary Screen mP associated with CN1C[C@H](C(=O)N[C@]2(C)O[C@@]3(O)[C@@H]4CCCN4C(=O)[C@H](Cc4ccccc4)N3C2=O)C=C2c3cccc4[nH]cc(c34)C[C@H]21 [Compound A18, ERGOTAMINE TARTRATE] reads 122.3 mP

----------
biological target: Bcl-xL-Beclin 1 complex (Homo sapiens, UniProt Q07817); construct: made in house; assay: Concentration response FP reconfirmation of HTS hits; assay type: binding; conditions: 160 μM; hits of first screen; read-out: Dose-response (% Inhibition) 160 μM
Counter-ions that a name gives are not always drawn.
# inhibition at 160 µM values compiled below
Lab book: enter the figure in %, no units written.

The following compounds have reported results that may help.
| compound | parameter_measured | readout_value |
| --- | --- | --- |
| CCCCCc1c2c(cc(O)c1C(=O)O)OC(=O)c1c(cc(OC)cc1C(=O)CCCC)O2 [Compound A04, LOBARIC ACID] | inhibition at 160 µM | 13.7 |
| O=C1C=C2CC3(O)COc4cc(O)ccc4C3=C2C=C1O (stereo not drawn) [Compound A01, BRAZILEIN] | inhibition at 160 µM | 74.8 |
| CCN(CC)CCCC(C)Nc1c2ccc(Cl)cc2nc2ccc(OC)cc12 (stereo not drawn) [Compound A21, QUINACRINE HYDROCHLORIDE] | inhibition at 160 µM | 66.3 |

Entry CC[C@@]1(O)C(=O)OCc2c1cc1n(c2=O)Cc2cc3c(CN(C)C)c(O)ccc3nc2-1 [Compound A23, TOPOTECAN HYDROCHLORIDE] under Bcl-xL-Beclin 1 complex (Homo sapiens, UniProt Q07817) had inhibition at 160 µM of 103

Log: Bcl-xL-Beclin 1 complex (Homo sapiens, UniProt Q07817), compound CC(C)=CCCC1(C)C=Cc2c(O)c3c(c(CC=C(C)C)c2O1)OC12C(=CCCC1C(C)(C)O[C@@]2(C/C=C(\C)C(=O)O)C(=O)O)C3=O (stereo partly drawn) [Compound A02, GARCINOLIC ACID] , inhibition at 160 µM = 22

Case O=C1c2c(O)ccc(O)c2C(=O)c2c(NCCNCCO)ccc(NCCNCCO)c21 [Compound A11, MITOXANTRONE HYDROCHLORIDE] , Bcl-xL-Beclin 1 complex (Homo sapiens, UniProt Q07817), inhibition at 160 µM recorded as 32.2
